# Test system: 855422-203-R-J1-PDC spheroids with HUVEC/MSC, viability
# Method Notes: Anticancer human tumor 855422-203-R-J1-PDC patient-derived bladder carcinoma cell line growth inhibition [PI3K]
# Recorded Conditions: second compound 0.0316 µM; first compound 0.1 µM; active compounds read low
Friendly reminder: viability, T/C below 80% is y, at or above is n.

{"columns": ["Compound", "Assigned Category"],
 "data": [
  ["CC(C)n1nc(-c2ccc3oc(N)nc3c2)c2c(N)ncnc21 + CC(Nc1ccc2c(c1)OCCn1cc(N3C(=O)OCC3C(F)F)nc1-2)C(N)=O", "y"],
  ["CC(C)n1nc(-c2ccc3oc(N)nc3c2)c2c(N)ncnc21 + CC(Nc1ncnc2nc[nH]c12)c1cc2cccc(Cl)c2c(=O)n1-c1ccccc1", "y"],
  ["C#Cc1c(F)ccc2cc(O)cc(-c3ncc4c(N5CC6CCC(C5)N6)nc(OCC56CCCN5CC(F)C6)nc4c3F)c12 (stereo unspecified) + CC(Nc1ncnc2nc[nH]c12)c1cc2cccc(Cl)c2c(=O)n1-c1ccccc1", "n"],
  ["CC(=O)c1c(C)c2cnc(Nc3ccc(N4CCNCC4)cn3)nc2n(C2CCCC2)c1=O + CC(Nc1ccc2c(c1)OCCn1cc(N3C(=O)OCC3C(F)F)nc1-2)C(N)=O", "y"],
  ["C=CC(=O)N1CCN(c2nc(=O)n(-c3c(C)ccnc3C(C)C)c3nc(-c4c(O)cccc4F)c(F)cc23)C(C)C1 (stereo unspecified) + Cc1nc(NC(=O)N2CCCC2C(N)=O)sc1-c1ccnc(C(C)(C)C(F)(F)F)c1", "n"]
]}

----------
# Test system: 855422-203-R-J1-PDC spheroids with HUVEC/MSC, viability
# Method Notes: Anticancer human tumor 855422-203-R-J1-PDC cell line growth inhibition [PI3K]; active = viability on the fitted dose curve at most 10% of control; inactive = the rest;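 note: agents incubated with spheroids for one week before read-out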
# Recorded Conditions: second compound 0.1 µM; first compound 0.1 µM
Labels: Y (active), N (inactive)

{"columns": ["Molecule", "Assigned Category"],
 "data": [
  ["CC(Cn1ccc(-c2ccc(C#N)c(Cl)c2)n1)NC(=O)c1cc(C(C)O)[nH]n1 (stereo unspecified) + COc1c(OCCCN2CCOCC2)ccc2c3n(c(=NC(=O)c4cnc(N)nc4)nc12)CCN3", "N"],
  ["Cn1ncc(Cl)c1-c1cc(C(=O)NC(CN)Cc2cccc(F)c2)sc1Cl (stereo unspecified) + Cc1nc(NC(=O)N2CCCC2C(N)=O)sc1-c1ccnc(C(C)(C)C(F)(F)F)c1", "N"],
  ["CC1(C)CCC(Nc2ncc(C(F)(F)F)c(-c3c[nH]c4c(P(C)(C)=O)c(C#N)ccc34)n2)CN1 (stereo unspecified) + CC(Nc1ccc2c(c1)OCCn1cc(N3C(=O)OCC3C(F)F)nc1-2)C(N)=O", "N"],
  ["Cn1ncnc1[C@H]1c2n[nH]c(=O)c3cc(F)cc(c23)N[C@@H]1c1ccc(F)cc1 + Cc1nc(NC(=O)N2CCCC2C(N)=O)sc1-c1ccnc(C(C)(C)C(F)(F)F)c1", "N"],
  ["CC(Cn1ccc(-c2ccc(C#N)c(Cl)c2)n1)NC(=O)c1cc(C(C)O)[nH]n1 (stereo unspecified) + CC(Nc1ccc2c(c1)OCCn1cc(N3C(=O)OCC3C(F)F)nc1-2)C(N)=O", "N"],
  ["CC(C)n1nc(-c2ccc3oc(N)nc3c2)c2c(N)ncnc21 + COc1c(OCCCN2CCOCC2)ccc2c3n(c(=NC(=O)c4cnc(N)nc4)nc12)CCN3", "Y"],
  ["C#Cc1c(F)ccc2cc(O)cc(-c3ncc4c(N5CC6CCC(C5)N6)nc(OCC56CCCN5CC(F)C6)nc4c3F)c12 (stereo unspecified) + CC(Nc1ncnc2nc[nH]c12)c1cc2cccc(Cl)c2c(=O)n1-c1ccccc1", "N"],
  ["Cn1nccc1Nc1nccc(-c2ccn(C(CO)c3ccc(Cl)c(F)c3)c(=O)c2)n1 (stereo unspecified) + Cc1nc(NC(=O)N2CCCC2C(N)=O)sc1-c1ccnc(C(C)(C)C(F)(F)F)c1", "N"],
  ["CNC(=O)c1ccc(N2C(=S)N(c3ccc(C#N)c(C(F)(F)F)c3)C(=O)C2(C)C)cc1F + Cc1nc(NC(=O)N2CCCC2C(N)=O)sc1-c1ccnc(C(C)(C)C(F)(F)F)c1", "N"],
  ["CC(C)NCC(C(=O)N1CCN(c2ncnc3c2C(C)CC3O)CC1)c1ccc(Cl)cc1 (stereo unspecified) + COc1c(OCCCN2CCOCC2)ccc2c3n(c(=NC(=O)c4cnc(N)nc4)nc12)CCN3", "N"],
  ["Cn1ncnc1[C@H]1c2n[nH]c(=O)c3cc(F)cc(c23)N[C@@H]1c1ccc(F)cc1 + COc1c(OCCCN2CCOCC2)ccc2c3n(c(=NC(=O)c4cnc(N)nc4)nc12)CCN3", "N"],
  ["CCCS(=O)(=O)Nc1ccc(F)c(C(=O)c2c[nH]c3ncc(-c4ccc(Cl)cc4)cc23)c1F + CC(Nc1ccc2c(c1)OCCn1cc(N3C(=O)OCC3C(F)F)nc1-2)C(N)=O", "N"],
  ["C=CC(=O)N1CCN(c2nc(=O)n(-c3c(C)ccnc3C(C)C)c3nc(-c4c(O)cccc4F)c(F)cc23)C(C)C1 (stereo unspecified) + COc1c(OCCCN2CCOCC2)ccc2c3n(c(=NC(=O)c4cnc(N)nc4)nc12)CCN3", "N"],
  ["CC(C)NCC(C(=O)N1CCN(c2ncnc3c2C(C)CC3O)CC1)c1ccc(Cl)cc1 (stereo unspecified) + Cc1nc(NC(=O)N2CCCC2C(N)=O)sc1-c1ccnc(C(C)(C)C(F)(F)F)c1", "N"],
  ["CCCS(=O)(=O)Nc1ccc(F)c(C(=O)c2c[nH]c3ncc(-c4ccc(Cl)cc4)cc23)c1F + Cc1nc(NC(=O)N2CCCC2C(N)=O)sc1-c1ccnc(C(C)(C)C(F)(F)F)c1", "N"],
  ["CC1(C)CCC(CN2CCN(c3ccc(C(=O)NS(=O)(=O)c4ccc(NCC5CCOCC5)c([N+](=O)[O-])c4)c(Oc4cnc5[nH]ccc5c4)c3)CC2)=C(c2ccc(Cl)cc2)C1 + Cc1nc(NC(=O)N2CCCC2C(N)=O)sc1-c1ccnc(C(C)(C)C(F)(F)F)c1", "N"],
  ["C[C@@H](NC(=O)c1ncnc(N)c1Cl)c1ncc(C(=O)Nc2cc(C(F)(F)F)c(Cl)cn2)s1 + CC(Nc1ncnc2nc[nH]c12)c1cc2cccc(Cl)c2c(=O)n1-c1ccccc1", "N"],
  ["CC(=O)c1c(C)c2cnc(Nc3ccc(N4CCNCC4)cn3)nc2n(C2CCCC2)c1=O + CC(Nc1ccc2c(c1)OCCn1cc(N3C(=O)OCC3C(F)F)nc1-2)C(N)=O", "N"],
  ["CC(C)NCC(C(=O)N1CCN(c2ncnc3c2C(C)CC3O)CC1)c1ccc(Cl)cc1 (stereo unspecified) + CC(Nc1ccc2c(c1)OCCn1cc(N3C(=O)OCC3C(F)F)nc1-2)C(N)=O", "N"],
  ["CNC(=O)c1ccc(N2C(=S)N(c3ccc(C#N)c(C(F)(F)F)c3)C(=O)C2(C)C)cc1F + CC(Nc1ncnc2nc[nH]c12)c1cc2cccc(Cl)c2c(=O)n1-c1ccccc1", "N"],
  ["CC1(C)CCC(CN2CCN(c3ccc(C(=O)NS(=O)(=O)c4ccc(NCC5CCOCC5)c([N+](=O)[O-])c4)c(Oc4cnc5[nH]ccc5c4)c3)CC2)=C(c2ccc(Cl)cc2)C1 + CC(Nc1ncnc2nc[nH]c12)c1cc2cccc(Cl)c2c(=O)n1-c1ccccc1", "N"]
]}

These data points were gathered from PubChem BioAssay AID1963967.
